Target: AR (Homo sapiens)
Construct: Degradation of AR; Cellular potency; host or cells: VCaP cells
Sequence (P10275 whole entry): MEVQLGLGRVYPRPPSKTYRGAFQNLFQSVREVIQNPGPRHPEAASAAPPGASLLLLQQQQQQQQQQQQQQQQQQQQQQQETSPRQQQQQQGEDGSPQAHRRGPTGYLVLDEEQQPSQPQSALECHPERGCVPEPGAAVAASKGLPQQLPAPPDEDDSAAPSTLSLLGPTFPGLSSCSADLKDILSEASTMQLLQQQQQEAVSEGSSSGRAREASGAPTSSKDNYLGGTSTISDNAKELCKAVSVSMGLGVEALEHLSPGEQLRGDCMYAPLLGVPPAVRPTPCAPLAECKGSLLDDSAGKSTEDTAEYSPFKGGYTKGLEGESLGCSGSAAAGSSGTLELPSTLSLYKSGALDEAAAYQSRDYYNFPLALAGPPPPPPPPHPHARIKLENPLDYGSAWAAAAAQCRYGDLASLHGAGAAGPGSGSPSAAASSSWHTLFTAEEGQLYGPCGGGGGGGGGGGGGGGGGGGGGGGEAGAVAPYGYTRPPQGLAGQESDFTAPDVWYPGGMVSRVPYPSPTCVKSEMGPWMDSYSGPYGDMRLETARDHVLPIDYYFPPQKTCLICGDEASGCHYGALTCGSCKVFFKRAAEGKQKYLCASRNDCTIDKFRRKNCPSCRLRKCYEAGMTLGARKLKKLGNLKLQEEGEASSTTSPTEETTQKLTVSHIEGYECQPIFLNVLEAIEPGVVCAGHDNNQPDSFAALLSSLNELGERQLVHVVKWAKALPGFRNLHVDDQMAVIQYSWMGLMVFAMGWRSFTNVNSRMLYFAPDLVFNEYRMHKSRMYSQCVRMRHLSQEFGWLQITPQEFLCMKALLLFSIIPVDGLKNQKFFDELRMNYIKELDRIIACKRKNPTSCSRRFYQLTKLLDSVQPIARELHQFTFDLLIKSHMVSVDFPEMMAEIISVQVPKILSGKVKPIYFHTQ
Experiment: Degradation of AR in VCaP cells
Type: cell-based
Conditions: VCaP, VCaP cells
Experimental: Biological Assays. LNCaP and VCaP cells used were purchased from American Type Culture Collection (ATCC). LNCaP were grown in RPMI 1640 (Invitrogen) and VCaP cells were grown in DMEM with Glutamax (Invitrogen). All of the cells were supplemented with 10% fetal bovine serum (Invitrogen) at 37° C. in a humidified 5% CO2 incubator.
propertyMeasured: Dmax

Recorded results for 3 molecules are shown here.
# molecule, Dmax
records = [
    ("C[C@H]1CC2(CCN(c3ccc(N4CCC(NC5CN(c6ccc7c(c6)C(=O)N(C6CCC(=O)NC6=O)C7=O)C5)CC4)cc3)CC2)CN1c1ccc(C#N)c(Cl)c1 (some centres unmarked) [compound 120]", "> 90%"),
    ("C[C@H]1CC2(CCN(c3ccc(N4CCN(CC5CN(c6ccc7c(c6)C(=O)N(C6CCC(=O)NC6=O)C7=O)C5)CC4)cc3)CC2)CN1c1ccc(C#N)c(Cl)c1 (some centres unmarked) [compound 28]", "> 90%"),
    ("C[C@H]1CC2(CCN(c3cnc(N4CCN(CC5CCN(c6ccc7c(c6)C(=O)N(C6CCC(=O)NC6=O)C7=O)CC5)CC4)cn3)CC2)CN1c1ccc(C#N)c(Cl)c1 (some centres unmarked) [compound 50]", "> 90%"),
]

Could you share which Dmax value was measured for C[C@H]1CC2(CCN(c3ccc(S(=O)(=O)N4CCC(N5Cc6cc7c(cc6C5)C(=O)N(C5CCC(=O)NC5=O)C7=O)CC4)cc3)CC2)CN1c1ccc(C#N)c(Cl)c1 (some centres unmarked) [compound 4] ?
70 to 90%

Please give the result for C=C1CCC(N2C(=O)c3ccc(N4CC(C5CCN(Cc6ccc(N7CCC8(CC7)C[C@H](C)N(c7ccc(C#N)c(Cl)c7)C8)cc6)CC5)C4)cc3C2=O)C(=O)N1 (some centres unmarked) [compound 16] too.
> 90%

---

target: AR (Homo sapiens); construct: Degradation of AR; Cellular potency; host or cells: VCaP cells; test: Degradation of AR in VCaP cells; type: cell-based; conditions: VCaP cells
propertyMeasured: DC50

Recorded results for 2 molecules are shown here.
# molecule, DC50
records = [
    ("C[C@H]1CC2(CCN(c3ccc(S(=O)(=O)C4CCN(CC5CN(c6ccc7c(c6)C(=O)N(C6CCC(=O)NC6=O)C7=O)C5)CC4)cc3)CC2)CN1c1ccc(C#N)c(Cl)c1 (stereo partly drawn) [compound 164]", "< 1 nM"),
    ("C[C@H]1CC2(CCN(c3ccc(CN4CCN(C5CCN(c6ccc7c(c6)C(=O)N(C6CCC(=O)NC6=O)C7=O)CC5)CC4)nc3)CC2)CN1c1ccc(C#N)c(Cl)c1 (stereo partly drawn) [compound 182]", "< 1 nM"),
]

Could you share which DC50 value was measured for C[C@H]1CC2(CCN(c3ccc(S(=O)(=O)C4CCN(C5CN(c6ccc7c(c6)C(=O)N(C6CCC(=O)NC6=O)C7=O)C5)CC4)cc3)CC2)CN1c1ccc(C#N)c(Cl)c1 (stereo partly drawn) [compound 163] ?
< 1 nM

---

Test system: VCaP cells
Experiment: Cellular potency (IC50) in VCaP cells
Assay type: cell-based
Conditions: Homo sapiens, VCaP
Experimental: Biological Assays. LNCaP and VCaP cells used were purchased from American Type Culture Collection (ATCC). LNCaP were grown in RPMI 1640 (Invitrogen) and VCaP cells were grown in DMEM with Glutamax (Invitrogen). All of the cells were supplemented with 10% fetal bovine serum (Invitrogen) at 37° C. in a humidified 5% CO2 incubator.
IC50 values for the compounds below.

Recorded results for 4 compounds are shown here.
# compound, IC50
records = [
    ("C[C@H]1CC2(CCN(c3ccc(C(=O)N4CCC(CN5CCOc6cc7c(cc6C5)C(=O)N(C5CCC(=O)NC5=O)C7=O)CC4)cc3)CC2)CN1c1ccc(C#N)c(Cl)c1 (some centres unmarked)", "< 0.1 µM"),
    ("C[C@H]1CC2(CCN(c3ccc(CN4CCC(CN5Cc6cc7c(cc6C5)C(=O)N(C5CCC(=O)NC5=O)C7=O)CC4)cc3)CC2)CN1c1ccc(C#N)c(Cl)c1 (some centres unmarked)", "< 0.1 µM"),
    ("C[C@H]1CC2(CCN(c3ccc(C(=O)C4CCN(C(=O)CN5Cc6cc7c(cc6C5)C(=O)N(C5CCC(=O)NC5=O)C7=O)CC4)cc3)CC2)CN1c1ccc(C#N)c(Cl)c1 (some centres unmarked)", "< 0.1 µM"),
    ("C[C@H]1CC2(CCN(c3ccc(OC4CN(C5CCN(c6ccc7c(c6)C(=O)N(C6CCC(=O)NC6=O)C7=O)CC5)C4)cc3)CC2)CN1c1ccc(C#N)c(Cl)c1 (some centres unmarked)", "< 0.01 µM"),
]

Could you now consider this next compound?
Could you share which IC50 value was measured for C[C@H]1CC2(CCN(c3ccc(CN4CCC(N5CCN(c6cc7c(cc6F)C(=O)N(C6CCC(=O)NC6=O)C7=O)CC5)CC4)nn3)CC2)CN1c1ccc(C#N)c(Cl)c1 (some centres unmarked) ?
< 0.01 µM

Values compiled from patent US20240190874A1.
